Origin of the recorded values: the supplement of paper PMC6757056

Could you please report measured normalized RNA/DNA level without ligand (log10) for the items listed next?
B1: library; a variant is named by its letters at N, in order (parent)
chain: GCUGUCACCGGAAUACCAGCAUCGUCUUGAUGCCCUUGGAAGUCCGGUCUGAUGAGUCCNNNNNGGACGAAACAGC

Variants of: B1
MEASUREMENT DESCRIPTION: normalized RNA/DNA level without ligand (relative to sTRSVctl = 100) (log10 (% of sTRSVctl)); higher = less ribozyme self-cleavage, higher mRNA level
RECORDED CONDITIONS: HEK293T, reporter: mCherry (pCS4076), ligand present: no
Answers are plain numbers.

MUTATION LIST: AAAGU
MEASURED: 1.58
//
MUTATION LIST: AAACC
MEASURED: 1.91
//
MUTATION LIST: ACCGU
MEASURED: 1.83
//
MUTATION LIST: AAUGA
MEASURED: 1.46
//
MUTATION LIST: ACAUU
MEASURED: 1.85
//
MUTATION LIST: UGUGA
MEASURED: 1.54
//
MUTATION LIST: AACGA
MEASURED: 1.53
//
MUTATION LIST: UCAGA
MEASURED: 1.55

Hey, quick one: what's normalized RNA/DNA level without ligand (log10) for each of these?
1. CGACU
2. UGAUU
3. GAAUC
4. CUAAU

[1.7, 1.7, 1.85, 1.79]
